Attribute: IC50
- Test system: Kasumi 1
- MEASUREMENT PROTOCOL: Antiproliferative activity against human Kasumi 1 cells assessed as inhibition of cell viability incubated for 72 hrs by ATPlite assay
- Type: functional, cell-based
- STATED CONDITIONS: Kasumi 1, 72 h
Dear colleague, please return just the value in µM, with no unit written.

Consider the following illustrative entries.
CC(n1cc(-c2cncc(N(C)C)n2)nn1)n1ccc(N2CCC[C@@H](NCC3CC3)C2)cc1=O (some centres undefined) = 0.096
COc1cc(-c2cn(Cc3ccc(N4CCC[C@H](NCC5CCC5)C4)nn3)nn2)c2cn[nH]c2c1 = 3.41
CC(n1cc(-c2cncc(N3CCCC3)c2)nn1)n1ccc(N2CCC[C@@H](NCC3CC3)C2)cc1=O (some centres undefined) = 0.011

Measured IC50, `COc1cncc(-c2cn(Cc3ccc(N4CCC[C@@H](NCC5CCC5)C4)nn3)nn2)c1` : 1.93

`COc1cncc(-c2cn(Cc3ccc(N4CCC[C@@H](NCC5CCC5)C4)cc3)nn2)c1` yielded IC50 of 0.875

GET /value?item= COc1cncc(-c2cn(C(C)c3ccc(N4CCC[C@@H](NCC5CCC5)C4)cn3)nn2)c1 (some centres undefined) &field=IC50 returns 2.1

Measured IC50, `COc1cc(-c2cn(Cc3ccc(N4CCC[C@@H](NC5CCCC5)C4)nn3)nn2)c2cn[nH]c2c1` : 3.43

---

- EXPERIMENTAL TARGET: UniProtKB P10635
- Sequence (P10635 whole entry): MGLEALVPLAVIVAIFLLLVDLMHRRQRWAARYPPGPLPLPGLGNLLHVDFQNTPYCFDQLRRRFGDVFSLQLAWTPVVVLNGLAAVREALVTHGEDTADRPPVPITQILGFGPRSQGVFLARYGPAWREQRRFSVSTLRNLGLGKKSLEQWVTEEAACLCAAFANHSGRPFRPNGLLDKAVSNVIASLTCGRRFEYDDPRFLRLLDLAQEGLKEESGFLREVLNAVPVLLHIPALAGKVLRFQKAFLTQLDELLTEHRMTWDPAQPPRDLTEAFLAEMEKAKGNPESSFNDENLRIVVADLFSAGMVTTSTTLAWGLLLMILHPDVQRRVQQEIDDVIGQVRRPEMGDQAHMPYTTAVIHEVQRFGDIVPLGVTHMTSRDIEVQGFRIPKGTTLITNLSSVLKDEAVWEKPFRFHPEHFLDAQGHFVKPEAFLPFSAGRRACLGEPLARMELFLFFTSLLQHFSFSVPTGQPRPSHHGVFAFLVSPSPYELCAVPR
MEASURED PROPERTY: IC50

Summary for this compound, `C[C@@H](n1cc(-c2cncc(N(C)C)c2)nn1)n1ccc(N2CCC[C@@H](NCC3CC3)C2)cc1=O` : IC50 is > 100 µM

---

- EXPERIMENTAL TARGET: METTL3/METTL14 (Homo sapiens, UniProt Q86U44)
- Sequence (Q86U44 whole entry): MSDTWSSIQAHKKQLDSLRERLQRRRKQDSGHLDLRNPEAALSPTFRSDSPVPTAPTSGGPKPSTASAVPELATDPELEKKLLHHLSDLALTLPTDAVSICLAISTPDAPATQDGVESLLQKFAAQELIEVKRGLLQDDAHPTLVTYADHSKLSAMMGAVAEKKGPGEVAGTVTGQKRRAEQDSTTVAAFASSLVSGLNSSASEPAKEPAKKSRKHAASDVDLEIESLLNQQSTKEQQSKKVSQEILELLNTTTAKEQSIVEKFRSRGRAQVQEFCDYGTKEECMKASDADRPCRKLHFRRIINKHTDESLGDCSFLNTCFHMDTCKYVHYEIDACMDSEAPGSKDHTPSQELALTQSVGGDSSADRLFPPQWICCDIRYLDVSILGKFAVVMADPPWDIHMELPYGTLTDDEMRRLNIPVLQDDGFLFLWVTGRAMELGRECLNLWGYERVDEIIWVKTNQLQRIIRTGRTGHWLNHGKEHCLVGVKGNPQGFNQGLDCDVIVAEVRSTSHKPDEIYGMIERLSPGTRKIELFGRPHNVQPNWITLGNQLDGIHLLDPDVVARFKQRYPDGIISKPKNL
- Sequence (Q9HCE5 whole entry, further chain): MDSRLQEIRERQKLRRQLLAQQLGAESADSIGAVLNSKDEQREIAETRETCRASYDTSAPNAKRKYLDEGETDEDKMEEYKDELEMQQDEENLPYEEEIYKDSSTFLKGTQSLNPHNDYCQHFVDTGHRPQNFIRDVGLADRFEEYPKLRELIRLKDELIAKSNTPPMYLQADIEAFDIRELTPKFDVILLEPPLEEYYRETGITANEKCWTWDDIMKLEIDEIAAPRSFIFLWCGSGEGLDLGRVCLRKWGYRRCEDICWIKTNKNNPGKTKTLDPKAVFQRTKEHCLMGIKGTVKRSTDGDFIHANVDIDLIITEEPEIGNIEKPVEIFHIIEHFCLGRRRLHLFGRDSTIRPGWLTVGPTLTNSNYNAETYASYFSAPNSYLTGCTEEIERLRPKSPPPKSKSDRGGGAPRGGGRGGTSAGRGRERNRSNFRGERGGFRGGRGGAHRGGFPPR
- MEASUREMENT PROTOCOL: Displacement of [3H]-SAM from METTL3/METTL14 (unknown origin) using 5'biotinylated-UACACUCGAUCUGGACUAAAGGUGCUC-3' RNA as substrate preincubated for 10 mins followed by substrate/[3H]-SAM addition measured after 90 mins by SPA
- Format: protein-complex assay
The following compounds are shown together with reported pIC50 values.
The read-out pIC50 is expressed as -log10 of concentration in moles per litre.

Worked examples, 7 compounds total:
CC(n1cc(-c2cncc(N(C)C)n2)nn1)n1ccc(N2CCC[C@@H](NCC3CC3)C2)cc1=O (some centres undefined) = 9.00
CC(n1cc(-c2cccn3cncc23)nn1)n1ccc(N2CCC[C@@H](NCC3CCC3)C2)cc1=O (some centres undefined) = 8.10
COc1cncc(-c2cn(Cc3ccc(N4CCC[C@@H](NCC5CCC5)C4)cn3)nn2)c1 = 8.40
COc1cncc(-c2cn(Cc3ccc(N4CCC[C@@H](NCC5CCC5)C4)nn3)nn2)c1 = 8.22
COc1cncc(-c2cn(C3(c4ccc(N5CCC[C@@H](NCC6CCC6)C5)nn4)CC3)nn2)c1 = 7.60
COc1cc(-c2cn(Cc3ccc(N4CCC[C@@H](NCC5CCC5)C4)nn3)nn2)c2cn[nH]c2c1 = 8.70
COc1cnnc(-c2cn(C(C)n3ccc(N4CCC[C@@H](NCC5CCC5)C4)cc3=O)nn2)c1 (some centres undefined) = 8.30

Field pIC50 (METTL3/METTL14 (Homo sapiens, UniProt Q86U44)), entry COc1cncc(-c2cn(C(C)c3ccc(N4CCC[C@@H](NCC5CCC5)C4)cn3)nn2)c1 (some centres undefined) : 8.40

---

# pIC50 per record follows
- EXPERIMENTAL TARGET: METTL3/METTL14 (Homo sapiens)
- MEASUREMENT PROTOCOL: Displacement of [3H]-SAM from METTL3/METTL14 (unknown origin) using 5'biotinylated-UACACUCGAUCUGGACUAAAGGUGCUC-3' RNA as substrate preincubated for 10 mins followed by substrate/[3H]-SAM addition measured after 90 mins by SPA
- Type: protein-complex assay
Friendly reminder that pIC50 comes from taking -log10 of the concentration in mol/L.

Solved entries (count: 3):
COc1cncc(-c2cn(Cc3ccc(N4CC5(CCC5NCC5CCC5)C4)nn3)nn2)c1 (stereo not given) = 5.64
COc1cc(-c2cn(Cc3ccc(N4CCC(NCC5CCC5)CC4)nn3)nn2)c2cn[nH]c2c1 = 6.25
CC(n1cc(-c2cncc(-n3cccn3)c2)nn1)n1ccc(N2CCC[C@@H](NCC3CCC3)C2)cc1=O (stereo not given in full) = 8.70

Now examine the next entry.
Bench note, METTL3/METTL14 (Homo sapiens): `COc1cncc(-c2cn(Cn3ncc(N4CCC[C@@H](NCC5CCC5)C4)cc3=O)nn2)c1` , pIC50 reads 7.59

---

- MEASUREMENT PROTOCOL: Unbound AUC in Sprague-Dawley rat at 1 mg/kg/day, iv measured for 24 hrs by LC-MS/MS analysis
- Format: ADME, organism-based
- STATED CONDITIONS: in vivo
# Yes = fAUC below 5 µM·min (exclusive); No = fAUC at/above 5 µM·min

Solved entries:
COc1cncc(-c2cn(C(C)c3ccc(N4CCC[C@@H](NCC5CCC5)C4)cn3)nn2)c1 (stereo partly drawn) = No
CC(n1cc(-c2cncc(N(C)C)n2)nn1)n1ccc(N2CCC[C@@H](NCC3CCC3)C2)cc1=O (stereo partly drawn) = Yes
COc1cncc(-c2cn(C(C)c3ccc(N4CCC[C@@H](NCC5CCC5)C4)nn3)nn2)c1 (stereo partly drawn) = No
COc1cncc(-c2cn([C@H](C)n3ccc(N4CCC[C@@H](NCC5CCC5)C4)cc3=O)nn2)c1 = Yes

Q: Is 5 µM·min strictly greater than the compound's reported fAUC? compound: CC(n1cc(-c2cncc(N(C)C)c2)nn1)n1ccc(N2CCC[C@@H](NCC3CCC3)C2)cc1=O (stereo partly drawn)
Ans: Yes

Q: Hello, I'm reviewing records and need to know if fAUC of CCOc1cncc(-c2cn(C(C)n3ccc(N4CCC[C@@H](NCC5CCC5)C4)cc3=O)nn2)c1 (stereo partly drawn) is below 5 µM·min. Could you check?
Ans: Yes

Q: Strictly below 5 µM·min in fAUC? CC(n1cc(-c2cncc(N(C)C)n2)nn1)n1ccc(N2CCC[C@@H](NCC3CC3)C2)cc1=O (stereo partly drawn)
Ans: No

Q: Please indicate whether the reported fAUC of `O=C(NCc1ccc2cc(CNCC3CCC3)[nH]c2c1)c1cc(=O)n2ccccc2n1` is strictly below 5 µM·min.
Ans: Yes

Q: Could you please tell me whether fAUC recorded for `C[C@@H](n1cc(-c2cncc(N3CCCC3)n2)nn1)n1ccc(N2CCC[C@@H](NCC3CC3)C2)cc1=O` is less than 5 µM·min?
Ans: Yes

Q: For this compound, is fAUC lower than 5 µM·min? `COc1cncc(-c2cn(Cc3ccc(N4CCC[C@@H](NCC5CCC5)C4)nn3)nn2)c1`
Ans: No

Q: For this compound, is fAUC lower than 5 µM·min? `COc1cncc(-c2cn(Cn3ccc(N4CCC[C@@H](NCC5CCC5)C4)cc3=O)nn2)c1`
Ans: Yes

Q: Does the reported fAUC of CC(n1cc(-c2cncc(N3CCCC3)c2)nn1)n1ccc(N2CCC[C@@H](NCC3CC3)C2)cc1=O (stereo partly drawn) stay below 5 µM·min?
Ans: Yes

---

- MEASUREMENT PROTOCOL: Lipophilicity, logD of compound in 1-octanol/PBS at pH 7.4 incubated for 24 hrs by HPLC analysis
- Format: physicochemical
MEASURED PROPERTY: logD at 24 h

Use the examples below as a reference point.
COc1cncc(-c2nnn(C(C)n3ccc(N4CCC[C@@H](NCC5CCC5)C4)cc3=O)n2)c1 (some centres undefined) = 1.52
COc1cncc(-c2cc(C(C)n3ccc(N4CCC[C@@H](NCC5CCC5)C4)cc3=O)sn2)c1 (some centres undefined) = 2.26
COc1cncc(-n2cnc(C(C)n3ccc(N4CCC[C@@H](NCC5CCC5)C4)cc3=O)c2)c1 (some centres undefined) = 1.25

In plain terms, COc1cncc(-n2cc(C(C)n3ccc(N4CCC[C@@H](NCC5CCC5)C4)cc3=O)cn2)c1 (some centres undefined) has a documented logD at 24 h of 1.6
